// provenance: the supplement of paper PMC6555819

# System: RARa homodimer (NR concentration 270 nM)
# assay-summary: PBM binding z-score (relative to random genomic background probes); higher = stronger binding; sequences stand for … in GC…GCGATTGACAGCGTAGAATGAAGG
readout-type: PBM binding z-score
Field format: numeric only.

# input Please report the recorded PBM binding z-score for TGAATGAGGTTATAAGATCATGGAACGTTGCAAA .
# output -0.439

# input Then what about the sequence TCTGCTAGCTCAGTTGGTCAGCTAACGAGCTGCC ?
# output -2.24

# input Then what about the sequence GGTAGCAGGCCATTTGGGTCACTCAATGACGGGC ?
# output -0.36

----------
# System: RARb homodimer (NR concentration 270 nM)
# assay-summary: PBM binding z-score (relative to random genomic background probes); higher = stronger binding; sequences stand for … in GC…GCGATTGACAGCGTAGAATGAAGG
Use Satisfied when the recorded PBM binding z-score is no lower than 0.5; use Not satisfied when it is lower.

# input Identify whether the reported PBM binding z-score of the following sequence is 0.5 or greater: ACAGACAGGTGATGATGGTAACTCAGGCTATCAT
# output Not satisfied

# input Then what about the sequence CCTGGCAGGCCAATCTGGGTCACTCAAGGCTTGA ?
# output Satisfied

# input Then what about the sequence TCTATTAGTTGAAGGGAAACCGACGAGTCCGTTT ?
# output Not satisfied

# input Then what about the sequence AGAATGAGGTTATACGTACATCAGGGAAGAAAGT ?
# output Satisfied

# input Then what about the sequence CCTTACGGGTCCAGGTTATAGCACGGGTGGTACG ?
# output Not satisfied

# input Then what about the sequence TCATATAGGTAAACAGGTGACAGTCCGTAAGTTA ?
# output Satisfied

# input Then what about the sequence CTAACTAGGTCAAGGACAGTGAATCTCCGCACGC ?
# output Satisfied

# input Then what about the sequence CCGAGTAGGTTATGGTGCATTCAGGCAACGGTGA ?
# output Satisfied

# input Then what about the sequence CTCGAAAGGTCGTGCTCCGGTGAGTATACCAAAC ?
# output Satisfied

# input Then what about the sequence GATACAGGGTCAGCTAGAGTCCAGAGTATGGAAA ?
# output Satisfied

----------
# Tested on: LXRa homodimer (NR concentration 270 nM)
# assay-summary: PBM binding z-score (relative to random genomic background probes); higher = stronger binding; sequences stand for … in GC…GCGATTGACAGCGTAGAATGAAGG
readout-type: PBM binding z-score
Field format: numeric only.

# input So what PBM binding z-score did CTTAGCAGGCCAGGGTCACTCAAGCATTTCGCTT get with LXRa homodimer (NR concentration 270 nM)?
# output -0.276

# input Then what about the sequence ATACCAAGGTGATCGTGAGGTCGTTAATACTAAC ?
# output 0.651

# input Then what about the sequence CCGAGTAGGTTATGGGGCATACAGGCAACGGTGA ?
# output -0.0431

# input Then what about the sequence CCGAGTAGGTTATGGGGCATTCGGGCAACGGTGA ?
# output 0.00114

# input Then what about the sequence TGTCAAAGTTCATAGGTAACGTAAGTATCCACAC ?
# output 4.17

# input Then what about the sequence AGCCAAAGTTCACTAGGTAACGTAAGATTCAGCT ?
# output 2.67

# input Then what about the sequence TCTCGGAGGACACGAAGGTCAGAGCTTTCCAGAG ?
# output -0.0274

# input Then what about the sequence GCGACTGGGCCATCAGCAGGTTACCATAACTTAA ?
# output -0.789

# input Then what about the sequence CGTCAAAGTTCAAGGTAAGGTAACAGAAAGCAGC ?
# output 2.37

# input Then what about the sequence ACAGACAGGTGATGAAGTTAACTCAGGCTATCAT ?
# output -0.307

# input Then what about the sequence CCTAGTTGGTCAGGAGGTCACACCCCGGATATGA ?
# output 2.07

# input Then what about the sequence CCTTATGGGTCACTCCAGGTTATAGCATCGGAGT ?
# output 1.43

# input Then what about the sequence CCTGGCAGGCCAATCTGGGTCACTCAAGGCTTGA ?
# output -0.703

# input Then what about the sequence AGTCTAAGTTCAGGACGAGGTAACGTAAAGCACG ?
# output 0.288

# input Then what about the sequence TCTAGCAGGCCAGAGGTTCACTCAAGAGGTACGG ?
# output -0.519

# input Then what about the sequence TGAATGAGATTATAAGATCAGGGAACGTTGCAAA ?
# output -0.661

# input Then what about the sequence TCGAGTAGGTTAGGGGCGTTCAGAATGGCGTCGA ?
# output -0.22

----------
# Test system: PPARg DBDmut IVT, anti-PPARg (DBD mutation: PPARg1 K132A/R137A, NR concentration 270 nM)
# assay-summary: PBM binding z-score (relative to random genomic background probes); higher = stronger binding; sequences stand for … in GC…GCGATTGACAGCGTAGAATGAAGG
readout-type: PBM binding z-score
Field format: numeric only.

# input Please report the recorded PBM binding z-score for GCGACTGGCGCAAAGCAGGTTACCATAAGGTTGG .
# output -1.11

# input Then what about the sequence ACTATTAGTTGAGACGGGGGCAACCGATAGGTTG ?
# output 7.99

# input Then what about the sequence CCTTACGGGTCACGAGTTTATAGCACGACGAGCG ?
# output 0.94

# input Then what about the sequence GGAACGAGGGCAAGTGGATAGCAGAGTTTGATGG ?
# output 0.066

# input Then what about the sequence ATATGTAGGTTAAGGGTTATTCAGGTTGGTTCGC ?
# output 3.04

# input Then what about the sequence GCATATACGTAATACAAGGTGAAAGTCCGATTGT ?
# output 1.15

# input Then what about the sequence ACTCGGAGGACAAGGGTCAGAGCTACGCCAGTGA ?
# output 0.0941

# input Then what about the sequence CCAGACAGTTGAGAAGGTAACTCAGCCTCGATTA ?
# output -0.051

# input Then what about the sequence GCGACTGGGGCAACGCAGGTTACCATAAGGTTGG ?
# output -0.763

# input Then what about the sequence CGAACTAGGTCAGCACAGGACAGTGAAGGATGAT ?
# output 0.245

# input Then what about the sequence ACAGACAGGTGAGTGAAGGTAATTCAGCTGGACG ?
# output -0.584

# input Then what about the sequence TCTTGTAGATCAAGCAGGTTTAGAAAGCCTGAGT ?
# output 0.305

----------
For each of the sequences below, state its PBM binding z-score.
# System: PPARg DBDmut:RXRa IVT, anti-PPARg (DBD mutation: PPARg1 K132A/R137A, NR concentration 270 nM, RXRa partner concentration 90 nM)
# assay-summary: PBM binding z-score (relative to random genomic background probes); higher = stronger binding; sequences stand for … in GC…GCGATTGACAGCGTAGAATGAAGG

# input Please report the recorded PBM binding z-score for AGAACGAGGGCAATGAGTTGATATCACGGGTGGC .
# output 0.947

# input Then what about the sequence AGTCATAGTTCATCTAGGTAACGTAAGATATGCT ?
# output 1.12

# input Then what about the sequence GTACCAAGGTGACTAGGTCGTTGATGAGTAGGCG ?
# output 0.227

# input Then what about the sequence GCGACTGGGACAAAGCAGGTTACCATAAGGTTGG ?
# output -0.413

# input Then what about the sequence ATATGTAGATTACATCCGGGTCATTCAGGCTATG ?
# output 1.43

# input Then what about the sequence CCTCGGAGGACAGAAGTTCAGAGCTGTCCGCTTT ?
# output -1.61

# input Then what about the sequence CAAACTACGTCACCGGAAGGTCAAAGTCCGCATG ?
# output 0.449

----------
# Tested on: RARg homodimer (NR concentration 270 nM)
# assay-summary: PBM binding z-score (relative to random genomic background probes); higher = stronger binding; sequences stand for … in GC…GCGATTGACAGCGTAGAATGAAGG
Use true when the recorded PBM binding z-score is no lower than 2; use false when it is lower.

# input Identify whether the reported PBM binding z-score of the following sequence is 2 or greater: TCTAGTTGGTCACGGAAGTCACACACGACGGGTA
# output false

# input Then what about the sequence AGAACGAGGGCATGCTGAGTTGATAGCAGAGTAG ?
# output false

# input Then what about the sequence ATCGAAAGGTCGTGAGGTGCGTATACAGAAAGGC ?
# output true

# input Then what about the sequence CGTCCATGGTCAATGCTAGGTCAGTGAAAGCATT ?
# output false

# input Then what about the sequence TCTCGGAGCACACGAAGGTCAGAGCTTTCCAGAG ?
# output false

# input Then what about the sequence GGAACGAGGGCAAGTTTATAGCAGAGTTTGATGG ?
# output true

# input Then what about the sequence CCTAGTTGGTCAGGATGTCACACACCGGATATGA ?
# output false

# input Then what about the sequence TTACCAAGGTGAAGGTCGTTGGTCCCTCTGTAGA ?
# output false

# input Then what about the sequence AGAATGAGGTTATTAAGATCAGGTAATTGCGGTC ?
# output false

# input Then what about the sequence ATAGGTAGGTTATCGGGTCATTCAGTTTGCGCAT ?
# output true

# input Then what about the sequence CCTAGAAGGCCAGGGTCACTCAAGCATTTCGCTT ?
# output true

# input Then what about the sequence CAAACTAGCTCAAGGTCAAAGTCGGTTTGTGCCA ?
# output true

# input Then what about the sequence ACTAGCAGGCCAAGGGTCACTCAGGATTAGTCCG ?
# output true

# input Then what about the sequence GGAACGAGGGCAAAGTTGAAAGCATCTGTCGACG ?
# output false

# input Then what about the sequence CCTCGGAGGACAGATGGTCAGAGCTGTCCGCTTT ?
# output false

# input Then what about the sequence CCTACTGGGCCACGAAAGGTCATTCATTCAGTGA ?
# output true

# input Then what about the sequence CCAACTAGGTCAAAGGTCAAAGTCGAGCCAACCA ?
# output true

# input Then what about the sequence CGTCAAAGTTCAAGGTAACGTTACAGAAAGCAGC ?
# output true

# input Then what about the sequence GCTATTAGTTGAAAGGGGAACCGAATGATTCTCG ?
# output false

# input Then what about the sequence TCAGCTAGGTCAGTTGGTCAGCTAACGAGCTGCC ?
# output true

# input Then what about the sequence AGAAAGAGGGCAATGAGTTGATAGCACGGGTGGC ?
# output true

# input Then what about the sequence CCGACTGGGGGATAAGGTTACCATAAGCCAGCCC ?
# output false

# input Then what about the sequence CTAACTAGGTCATTGACAGGACAGTGAATAGTAA ?
# output true

# input Then what about the sequence TAGACTAGGTCATTGGGCCAGTATAGTACGCATC ?
# output true

# input Then what about the sequence ACCAGCAGGCCAAGTTTGGGTCACTCAAACAAAG ?
# output false

# input Then what about the sequence ATCCAAAGGTCGAAGGTGAGTATACCCACCCGAA ?
# output true

# input Then what about the sequence TCTATTAGTTGATTAGGGCAACCTAAACAGCGGA ?
# output false

# input Then what about the sequence TCTTTTAGATCAACAGGAGGTTAAGAAAGATCGA ?
# output false

# input Then what about the sequence AAAATGAGGTTACCAAAGATCAGGGAAACGCTTG ?
# output false

# input Then what about the sequence CCTTACGAGTCACTGACAGGTTATAGCATTTGGA ?
# output false

# input Then what about the sequence ATCGAAAGGTCGAGCTGAGTATAGAGAAAGGGAA ?
# output true

# input Then what about the sequence CCTACTGCGCCAAAAAGGTCATTGATGCCGATAA ?
# output true

# input Then what about the sequence ATCGAAAGATCGTGAGGTGAGTATACAGAAAGGC ?
# output false

# input Then what about the sequence CCTCGGAGGACAACAGGAGGTGAGAGCTGCCAGA ?
# output false
